Test system: 926638-142-R-J1-PDC complex spheroid viability
Test: Anticancer human tumor 926638-142-R-J1-PDC patient-derived endometrial carcinoma cell line growth inhibition [POLQ]
Conditions: curve of first compound; second compound 3.16 µM
Description: Multicellular complex tumor spheroid response to Polymerase (POL) inhibitors (novobiocin, ART-558, RP6685) in combination with a variety of drugs and investigational agents in selected tumor cell lines The POL inhibitors (novobiocin, ART-558, and RP6685) were evaluated both individually and in combination with standard of care and investigational anticancer small molecules within a complex spheroid model of solid tumors. . […]
IC50 for assorted compounds
Write it as a number; the unit µM goes unstated.

# COMPOUND, RESULT
measured = [
    ("COc1ccc([C@@H](O)c2cc(-c3ncnc4cc(N5CCOCC5)ccc34)c(F)cc2Cl)nn1 + Cc1cccc(N(C)C(=O)C2C(O)CCN2c2nc(C)cc(C(F)(F)F)c2C#N)c1", 0.484),
    ("CC[C@@]1(O)C(=O)OCc2c1cc1n(c2=O)Cc2cc3c(CN(C)C)c(O)ccc3nc2-1 + Nc1ccc(C#CCN(C(=O)Cc2ncc(C(F)(F)F)cc2C(F)(F)F)c2ccc(F)cc2)nn1", 0.0955),
]

// below: IC50 requested for another compound
Form field IC50, entry CCCS(=O)(=O)Nc1ccc(F)c(C(=O)c2c[nH]c3ncc(-c4ccc(Cl)cc4)cc23)c1F + COC1C(OC(N)=O)C(O)C(Oc2ccc3c(O)c(NC(=O)c4ccc(O)c(CC=C(C)C)c4)c(=O)oc3c2C)OC1(C)C : 9.78

====

System: 926638-142-R-J1-PDC complex spheroid viability
Test: Anticancer human tumor 926638-142-R-J1-PDC cell line growth inhibition [POLQ];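 note: spheroids exposed to drugs for one week before readout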;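 for viability, T/C: percent viability relative to DMSO vehicle control wells set as 100%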
Settings: second compound 0.0316 µM; first compound 0.00316 µM; stronger effect = lower value
hey, just use Y if measured viability, T/C is less than 80%, otherwise N

Solved entries:
# COMPOUND, LABEL
records = [
    ("CCc1c2c(nc3ccc(O)cc13)-c1cc3c(c(=O)n1C2)COC(=O)[C@]3(O)CC + Cc1cccc(N(C)C(=O)C2C(O)CCN2c2nc(C)cc(C(F)(F)F)c2C#N)c1", "Y"),
    ("C=CCn1c(=O)c2cnc(Nc3ccc(N4CCN(C)CC4)cc3)nc2n1-c1cccc(C(C)(C)O)n1 + COC1C(OC(N)=O)C(O)C(Oc2ccc3c(O)c(NC(=O)c4ccc(O)c(CC=C(C)C)c4)c(=O)oc3c2C)OC1(C)C", "N"),
    ("COc1cccc(OCCCN)c1-c1cc(Nc2cnc(C#N)cn2)n[nH]1 + COC1C(OC(N)=O)C(O)C(Oc2ccc3c(O)c(NC(=O)c4ccc(O)c(CC=C(C)C)c4)c(=O)oc3c2C)OC1(C)C", "N"),
    ("COc1cccc(OCCCN)c1-c1cc(Nc2cnc(C#N)cn2)n[nH]1 + Nc1ccc(C#CCN(C(=O)Cc2ncc(C(F)(F)F)cc2C(F)(F)F)c2ccc(F)cc2)nn1", "N"),
    ("COc1cccc(OCCCN)c1-c1cc(Nc2cnc(C#N)cn2)n[nH]1 + Cc1cccc(N(C)C(=O)C2C(O)CCN2c2nc(C)cc(C(F)(F)F)c2C#N)c1", "N"),
    ("CC[C@@]1(O)C(=O)OCc2c1cc1n(c2=O)Cc2cc3c(CN(C)C)c(O)ccc3nc2-1 + Cc1cccc(N(C)C(=O)C2C(O)CCN2c2nc(C)cc(C(F)(F)F)c2C#N)c1", "Y"),
]

hey, is viability, T/C for C=CCn1c(=O)c2cnc(Nc3ccc(N4CCN(C)CC4)cc3)nc2n1-c1cccc(C(C)(C)O)n1 + Nc1ccc(C#CCN(C(=O)Cc2ncc(C(F)(F)F)cc2C(F)(F)F)c2ccc(F)cc2)nn1 lower than 80% or not?
N

Take the compound CC[C@@]1(O)C(=O)OCc2c1cc1n(c2=O)Cc2cc3c(CN(C)C)c(O)ccc3nc2-1 + COC1C(OC(N)=O)C(O)C(Oc2ccc3c(O)c(NC(=O)c4ccc(O)c(CC=C(C)C)c4)c(=O)oc3c2C)OC1(C)C and say whether its viability, T/C is less than 80%.
N

====

Tested on: 926638-142-R-J1-PDC complex spheroid viability
Test: Anticancer human tumor 926638-142-R-J1-PDC cell line growth inhibition [POLQ]; active = viability on the fitted dose curve at most 10% of control; inactive = the rest;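 note: spheroids exposed to drugs for one week before readout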
Conditions: second compound 10 µM; first compound 0.316 µM
Form entry, call: pick from active, inactive

// below: answered compounds
# COMPOUND, LABEL
measured = [
    ("O=C(Nc1ccc(O)c(NS(=O)(=O)c2ccc(F)cc2)c1)c1ccc(-c2ccccc2)cc1 + Cc1cccc(N(C)C(=O)C2C(O)CCN2c2nc(C)cc(C(F)(F)F)c2C#N)c1", "inactive"),
    ("C=CC(=O)N1CCN(c2nc(=O)n(-c3c(C)ccnc3C(C)C)c3nc(-c4c(O)cccc4F)c(F)cc23)C(C)C1 (stereo unspecified) + Cc1cccc(N(C)C(=O)C2C(O)CCN2c2nc(C)cc(C(F)(F)F)c2C#N)c1", "inactive"),
    ("CCc1c2c(nc3ccc(O)cc13)-c1cc3c(c(=O)n1C2)COC(=O)[C@]3(O)CC + COC1C(OC(N)=O)C(O)C(Oc2ccc3c(O)c(NC(=O)c4ccc(O)c(CC=C(C)C)c4)c(=O)oc3c2C)OC1(C)C", "active"),
]

How was COc1cc2cc(C(=O)CCC(=O)O)sc2cc1OC + COC1C(OC(N)=O)C(O)C(Oc2ccc3c(O)c(NC(=O)c4ccc(O)c(CC=C(C)C)c4)c(=O)oc3c2C)OC1(C)C classified in this test?
inactive

State the result this test recorded for CNCc1ccc(-c2[nH]c3cc(F)cc4c3c2CCNC4=O)cc1 + Nc1ccc(C#CCN(C(=O)Cc2ncc(C(F)(F)F)cc2C(F)(F)F)c2ccc(F)cc2)nn1 .
inactive

GET /call?item= COc1cc2cc(C(=O)CCC(=O)O)sc2cc1OC + Cc1cccc(N(C)C(=O)C2C(O)CCN2c2nc(C)cc(C(F)(F)F)c2C#N)c1 returns the recorded outcome of this test.
inactive

Which result was noted for this compound in the test: COc1ccc([C@@H](O)c2cc(-c3ncnc4cc(N5CCOCC5)ccc34)c(F)cc2Cl)nn1 + Cc1cccc(N(C)C(=O)C2C(O)CCN2c2nc(C)cc(C(F)(F)F)c2C#N)c1
inactive

Field: outcome | Entry: CCCS(=O)(=O)Nc1ccc(F)c(C(=O)c2c[nH]c3ncc(-c4ccc(Cl)cc4)cc23)c1F + COC1C(OC(N)=O)C(O)C(Oc2ccc3c(O)c(NC(=O)c4ccc(O)c(CC=C(C)C)c4)c(=O)oc3c2C)OC1(C)C
inactive

====

Test system: 926638-142-R-J1-PDC complex spheroid viability
Assay: Anticancer human tumor 926638-142-R-J1-PDC cell line growth inhibition [POLQ];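 note: spheroids exposed to drugs for one week before readout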;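 for viability, T/C: percent viability relative to DMSO vehicle control wells set as 100%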
Details: second compound 0.316 µM; first compound 1 µM; stronger effect = lower value
ASSAY READOUT: viability, T/C

Worked examples, 10 compounds total:
# COMPOUND, SYSTEM TESTED, RESULT
rows = [
    ("CCc1c2c(nc3ccc(O)cc13)-c1cc3c(c(=O)n1C2)COC(=O)[C@]3(O)CC + Nc1ccc(C#CCN(C(=O)Cc2ncc(C(F)(F)F)cc2C(F)(F)F)c2ccc(F)cc2)nn1", "926638-142-R-J1-PDC complex spheroid viability", "10.4%"),
    ("CNCc1ccc(-c2[nH]c3cc(F)cc4c3c2CCNC4=O)cc1 + Cc1cccc(N(C)C(=O)C2C(O)CCN2c2nc(C)cc(C(F)(F)F)c2C#N)c1", "926638-142-R-J1-PDC complex spheroid viability", "89.7%"),
    ("COc1cccc(OCCCN)c1-c1cc(Nc2cnc(C#N)cn2)n[nH]1 + COC1C(OC(N)=O)C(O)C(Oc2ccc3c(O)c(NC(=O)c4ccc(O)c(CC=C(C)C)c4)c(=O)oc3c2C)OC1(C)C", "926638-142-R-J1-PDC complex spheroid viability", "35.2%"),
    ("CCc1cc2c(N3CCc4c(cc(Cn5ccnc5)cc4-c4cn(C)nc4C(F)(F)F)C3=O)cc(C)nc2c(OC)n1 + Cc1cccc(N(C)C(=O)C2C(O)CCN2c2nc(C)cc(C(F)(F)F)c2C#N)c1", "926638-142-R-J1-PDC complex spheroid viability", "48.4%"),
    ("COc1cccc(OCCCN)c1-c1cc(Nc2cnc(C#N)cn2)n[nH]1 + Nc1ccc(C#CCN(C(=O)Cc2ncc(C(F)(F)F)cc2C(F)(F)F)c2ccc(F)cc2)nn1", "926638-142-R-J1-PDC complex spheroid viability", "36.7%"),
    ("COc1cccc2c1C(=O)c1c(O)c3c(c(O)c1C2=O)CC(O)(C(=O)CO)CC3OC1CC(N)C(O)C(C)O1 (stereo unspecified) + COC1C(OC(N)=O)C(O)C(Oc2ccc3c(O)c(NC(=O)c4ccc(O)c(CC=C(C)C)c4)c(=O)oc3c2C)OC1(C)C", "926638-142-R-J1-PDC complex spheroid viability", "1.61%"),
    ("CC1COCCN1c1cc(-c2ccnn2C)c2ccnc(-c3ccn[nH]3)c2n1 (stereo unspecified) + Nc1ccc(C#CCN(C(=O)Cc2ncc(C(F)(F)F)cc2C(F)(F)F)c2ccc(F)cc2)nn1", "926638-142-R-J1-PDC complex spheroid viability", "26.7%"),
    ("C#Cc1c(F)ccc2cc(O)cc(-c3ncc4c(N5CC6CCC(C5)N6)nc(OCC56CCCN5CC(F)C6)nc4c3F)c12 (stereo unspecified) + Cc1cccc(N(C)C(=O)C2C(O)CCN2c2nc(C)cc(C(F)(F)F)c2C#N)c1", "926638-142-R-J1-PDC complex spheroid viability", "71.8%"),
    ("CC1COCCN1c1cc(C2(O)CC3CCC(C2)O3)c2cnn(-c3ccn[nH]3)c2n1 (stereo unspecified) + Nc1ccc(C#CCN(C(=O)Cc2ncc(C(F)(F)F)cc2C(F)(F)F)c2ccc(F)cc2)nn1", "926638-142-R-J1-PDC complex spheroid viability", "19.8%"),
    ("CCc1cc2c(N3CCc4c(cc(Cn5ccnc5)cc4-c4cn(C)nc4C(F)(F)F)C3=O)ccnc2c(OC)n1 + COC1C(OC(N)=O)C(O)C(Oc2ccc3c(O)c(NC(=O)c4ccc(O)c(CC=C(C)C)c4)c(=O)oc3c2C)OC1(C)C", "926638-142-R-J1-PDC complex spheroid viability", "43%"),
]

Then there is this compound:
Lab note: measured viability, T/C of C=CC(=O)N1CCN(c2nc(=O)n(-c3c(C)ccnc3C(C)C)c3nc(-c4c(O)cccc4F)c(F)cc23)C(C)C1 (stereo unspecified) + Cc1cccc(N(C)C(=O)C2C(O)CCN2c2nc(C)cc(C(F)(F)F)c2C#N)c1 was 74.2%
